The reported measurements were obtained from ChEMBL document CHEMBL3526047.

# Method Summary: Terminal elimination half life in healthy obese adult male human at 25 mg, po administered as single dose
# Type: ADME, organism-based
# Applied Conditions: in vivo, read-out: beta t1/2 (converted)
Measured Property: half-life (h)
Answer with a number only, understood to be in h.

Could you share which half-life value was measured for CCNC1(C(N)=O)CCN(c2ncnc3c2nc(-c2ccccc2Cl)n3-c2ccc(Cl)cc2)CC1.Cl [OTENABANT HYDROCHLORIDE] ? 159

* * *

# Tested on: Homo sapiens
# Method Summary: AUC (0 to infinity) in healthy obese adult male human at 25 mg, po administered as single dose
# Type: ADME, organism-based, Plasma
# Design: dose 25 mg, route oral, time infinity
# Applied Conditions: in vivo
Measured Property: AUC (ng·h/mL)
Answer with a number only, understood to be in ng·h/mL.

Could you share which AUC value was measured for CCNC1(C(N)=O)CCN(c2ncnc3c2nc(-c2ccccc2Cl)n3-c2ccc(Cl)cc2)CC1.Cl [OTENABANT HYDROCHLORIDE] ? 864

* * *

# Target Of Assay: Cytochrome P450 3A4 (Homo sapiens, UniProt P08684)
# Sequence (P08684 whole entry): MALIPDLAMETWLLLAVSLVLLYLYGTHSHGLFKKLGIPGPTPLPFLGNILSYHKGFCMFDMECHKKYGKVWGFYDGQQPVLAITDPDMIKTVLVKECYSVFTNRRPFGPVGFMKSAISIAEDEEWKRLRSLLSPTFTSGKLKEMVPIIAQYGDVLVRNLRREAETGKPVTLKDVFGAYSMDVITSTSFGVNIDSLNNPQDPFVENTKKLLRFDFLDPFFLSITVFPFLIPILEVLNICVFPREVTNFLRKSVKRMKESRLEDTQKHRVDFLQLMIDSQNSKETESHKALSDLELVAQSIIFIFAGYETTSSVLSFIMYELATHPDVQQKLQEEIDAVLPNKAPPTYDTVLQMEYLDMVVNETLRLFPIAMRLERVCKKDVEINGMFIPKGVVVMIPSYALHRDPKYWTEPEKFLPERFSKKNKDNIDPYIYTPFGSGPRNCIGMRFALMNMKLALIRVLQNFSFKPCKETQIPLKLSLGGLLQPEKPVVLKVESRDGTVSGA
# Method Summary: Drug metabolism assessed as human recombinant CYP3A4-mediated metabolite formation after 60 mins by HPLC method
# Format: ADME
# Applied Conditions: recombinant enzyme, 1 h
Each entry below carries its recorded Drug metabolism.
Answer with a number only, understood to be in %.

Below: 3 molecules and their reported Drug metabolism.
Chemical Smiles	Measured Property	Value Observed
O=C1CCN(c2ncnc3c2nc(-c2ccccc2Cl)n3-c2ccc(Cl)cc2)CC1	Drug metabolism	26.9
ON=C1CCN(c2ncnc3c2nc(-c2ccccc2Cl)n3-c2ccc(Cl)cc2)CC1	Drug metabolism	13
NC(=O)C1(NO)CCN(c2ncnc3c2nc(-c2ccccc2Cl)n3-c2ccc(Cl)cc2)CC1	Drug metabolism	8.8

Turning now to a further molecule:
Could you share which Drug metabolism value was measured for NC(=O)C1(N)CCN(c2ncnc3c2nc(-c2ccccc2Cl)n3-c2ccc(Cl)cc2)CC1 ? 48.1

* * *

# Method Summary: Bioavailability in dog
# Format: ADME, organism-based, Canis lupus familiaris
# Applied Conditions: in vivo
Measured Property: bioavailability (%)
Answer with a number only, understood to be in %.

Could you share which bioavailability value was measured for CCNC1(C(N)=O)CCN(c2ncnc3c2nc(-c2ccccc2Cl)n3-c2ccc(Cl)cc2)CC1.Cl [OTENABANT HYDROCHLORIDE] ? 32

* * *

# Method Summary: Bioavailability in rat
# Assay type: ADME, organism-based
# Applied Conditions: in vivo
Measured Property: bioavailability (%)
Answer with a number only, understood to be in %.

Could you share which bioavailability value was measured for CCNC1(C(N)=O)CCN(c2ncnc3c2nc(-c2ccccc2Cl)n3-c2ccc(Cl)cc2)CC1.Cl [OTENABANT HYDROCHLORIDE] ? 32

* * *

Each entry below carries its recorded Drug excretion.
# Method Summary: Drug excretion in urine of healthy obese adult male human treated with [14C]CP-945,598 at 25 mg, po administered as single dose after 0 to 384 hrs hrs by HPLC method
# Assay type: ADME, organism-based
# Applied Conditions: in vivo
Answer with a number only, understood to be in %.

Chemical Smiles	Unit Symbol	Value Observed
NC(=O)C1(N)CCN(c2ncnc3c2nc(-c2ccccc2Cl)n3-c2ccc(Cl)cc2)CC1	%	2.3
NC(=O)C1(NO[C@@H]2O[C@H](CO)[C@@H](O)[C@H](O)[C@H]2O)CCN(c2ncnc3c2nc(-c2ccccc2Cl)n3-c2ccc(Cl)cc2)CC1	%	4.8

Could you share which Drug excretion value was measured for NC(=O)C1(NO)CCN(c2ncnc3c2nc(-c2ccccc2Cl)n3-c2ccc(Cl)cc2)CC1 ? 0.6

Could you share which Drug excretion value was measured for NC1(C(=O)O)CCN(c2ncnc3c2nc(-c2ccccc2Cl)n3-c2ccc(Cl)cc2)CC1 ? 5.4
